Data origin: paper PMC4041747

# SUBJECT OF TEST: the molecule itself
# TEST SUMMARY: crystal structure; free protein crystals, protein at 2-14 mg/mL, diffraction data at 100 K; dimer of the protein with itself
OUTCOME MEASURE: binding result

• C.Esp1396I R46A mutant (natural protein, controller (C) protein C.Esp1396I with R46A; Crystallised in two space groups (C2 and P3(2)); not shown: His6, N-terminal, cleaved) MESFLLSKVSFVIKKIRLEKGMTQEDLAYKSNLDRTYISGIERNSANLTIKSLELIMKGLEVSDVVFFEMLIKEILKHD = binds
• C.Esp1396I Y37F mutant (natural protein, controller (C) protein C.Esp1396I with Y37F; Gene synthesised by GenScript; not shown: His6, N-terminal, cleaved) MESFLLSKVSFVIKKIRLEKGMTQEDLAYKSNLDRTFISGIERNSRNLTIKSLELIMKGLEVSDVVFFEMLIKEILKHD = binds
• C.Esp1396I T36A mutant (natural protein, controller (C) protein C.Esp1396I with T36A; not shown: His6, N-terminal, cleaved) MESFLLSKVSFVIKKIRLEKGMTQEDLAYKSNLDRAYISGIERNSRNLTIKSLELIMKGLEVSDVVFFEMLIKEILKHD = binds
